species: Homo sapiens; assay: To identify inhibition of the IFN signalling (Jak-Stat) pathway via expression of an eGFP reporter gene under the control of an IFN-stimulated response element (ISRE) containing MxA promoter.; type: functional; parameters: scale not given: direction of the effect not stated beside the values; settings: 30 µM
endpoint-label: Percent Effect (%)
Numbers only, in %.

CCN1CCN(C(=O)c2nc(C)n(-c3ccccc3Cl)n2)CC1 | -16.5
CCn1c(C)nnc1CN(C)C1CCN(CCn2cccn2)C1 (stereo not drawn) | 20.6
c1ccc(CCCN2CC(n3cccn3)C2)cc1 | 25.9
CCC1CN(C(=O)Nc2cnc3c(cnn3C(C)C)c2)CCO1 (stereo not drawn) | 22.8
O=C(CN1CCCCC1Cn1cncn1)NC1CCN(C2CC2)CC1 (stereo not drawn) | 2.27
COc1ccc(CN2CCC(O)CC2)c(OC)c1 | 13.4
O=C(Cc1ccccn1)N1CCN(C(=O)c2cccc3[nH]ncc23)CC1 | 4.63
CCC(C)(C)NC(=O)CN(C)C(c1cccc(F)c1)c1ccccn1 (stereo not drawn) | 36.6

State the recorded Percent Effect for every item in the following list.
1. O=C(CCCc1cn[nH]c1)N1C[C@@H](CN2CCOCC2)[C@@H](CO)C1
2. Cc1noc(C)c1CN1CC[C@H]2OCC[C@@H](C(=O)NCC3CC3)[C@@H]2C1
3. CCc1nc(CN2CCCC(NCc3cnn(C(C)(C)C)c3)C2)no1 (stereo not drawn)

Response:
1: 5.26; 2: -17.4; 3: 14.9

Give Percent Effect for each listed item.
1. CN(C)S(=O)(=O)N1CCC2(COCc3cnc(-c4ccccc4)nc32)C1 (stereo not drawn)
2. c1csc(CN2CCn3c(Cn4cncn4)cnc3C2)n1
3. Cc1cnn(CCC(=O)N2CCCC(c3cc(C(N)=O)[nH]n3)C2)c1 (stereo not drawn)
4. CC(Cn1cncn1)NCc1nncn1C1CCCCC1 (stereo not drawn)
5. Cc1nc(C)n(C2CCCN(C(=O)c3ccc(NC4CC4)nc3)C2)n1 (stereo not drawn)
6. O=C(Cc1cccc(F)c1)NCCNCc1ccco1

Response:
1. 12.3
2. -18.1
3. 4.5
4. -15.2
5. 8.24
6. 34.8
